Where these numbers come from: the RNAGym collection of RNA variant scans (doi:10.1073/pnas.2313332121)

B1: TPR t1 (parent)
chain: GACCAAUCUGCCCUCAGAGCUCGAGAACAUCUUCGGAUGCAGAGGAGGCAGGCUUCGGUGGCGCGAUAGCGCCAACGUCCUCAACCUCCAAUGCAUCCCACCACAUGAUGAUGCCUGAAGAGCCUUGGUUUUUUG

Variants of: B1
assay details: polymerase ribozyme fitness, log enrichment relative to wild type (log ratio); higher = more active; in vitro selection for triplet polymerase activity
metric: polymerase ribozyme fitness (log ratio)
Give the figure only, with no unit attached.

variant_code="C8G C53U" metric="polymerase ribozyme fitness (log ratio)" reported_value=0.216
variant_code="G39C G135U" metric="polymerase ribozyme fitness (log ratio)" reported_value=-0.712
variant_code="G36C C49A C53A G61C C76U A119G" metric="polymerase ribozyme fitness (log ratio)" reported_value=-6.33
variant_code="U59G A74G" metric="polymerase ribozyme fitness (log ratio)" reported_value=-0.396
variant_code="C88A C102A G107A A111C U116G C123G U125A" metric="polymerase ribozyme fitness (log ratio)" reported_value=-6.39

Given the entry G10A C49A U78C U116A G120U , report its measured polymerase ribozyme fitness (log ratio).
-0.56

Here is the next variant: G44A G69A C89A C124G
-3.8

Here is the next variant: A6C G61U U87A
-0.857

Here is the next variant: C11A G60U
-0.589

Here is the next variant: G58A A103G
-4.88

Here is the next variant: A24G G47A C73A
-1.58

Here is the next variant: U21A A50U C73U C76G C89A
-4.66

Here is the next variant: G60C C97A
-4.44

Here is the next variant: A29G G39U C72G
-3.09

Here is the next variant: G48A U130C
-0.486

Here is the next variant: G25C C53G
-6.8
